experimentalSystem: melanocortin-4 receptor (human, UniProt P32245 1-332)
Sequence (P32245 whole entry): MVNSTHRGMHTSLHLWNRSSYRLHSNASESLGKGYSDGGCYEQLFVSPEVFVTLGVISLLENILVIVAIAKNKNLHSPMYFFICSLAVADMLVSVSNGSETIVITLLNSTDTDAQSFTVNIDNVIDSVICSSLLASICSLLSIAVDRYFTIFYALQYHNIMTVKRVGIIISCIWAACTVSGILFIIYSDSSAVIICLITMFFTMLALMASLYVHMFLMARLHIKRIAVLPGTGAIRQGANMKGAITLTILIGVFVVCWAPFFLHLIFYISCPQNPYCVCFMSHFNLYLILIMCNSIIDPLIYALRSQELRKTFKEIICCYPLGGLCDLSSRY
protocolText: cell-based or functional assay
Bridge positions count the residues as written; N and C are the ends. Square brackets hold non-standard residues; d marks the D form. dPhe(4-F) = N[C@H](Cc1ccc(F)cc1)C(=O)O; hCys = N[C@@H](CCS)C(=O)O
measuredParameter: cAMP Assay (EC-50)

Here are 4 binders together with their reported answers.
- binder: "Ac-RC[dA]Q[dF]RWC-NH2 (disulfide 2-8; SMILES CC(=O)N[C@@H](CCCNC(=N)N)C(=O)N[C@H]1CSSC[C@@H](C(N)=O)NC(=O)[C@H](Cc2c[nH]c3ccccc23)NC(=O)[C@H](CCCNC(=N)N)NC(=O)[C@@H](Cc2ccccc2)NC(=O)[C@H](CCC(N)=O)NC(=O)[C@@H](C)NC1=O) [Compound 8: Ac-Arg-cyclo[Cys-D-Ala-Gln-D-Phe-Arg-Trp-Cys]-NH2]"
  cAMP Assay (EC-50): "1.6 nM"
- binder: "Ac-RC[dA]P[dPhe(4-F)]RWC-NH2 (disulfide 2-8; SMILES CC(=O)N[C@@H](CCCNC(=N)N)C(=O)N[C@H]1CSSC[C@@H](C(N)=O)NC(=O)[C@H](Cc2c[nH]c3ccccc23)NC(=O)[C@H](CCCNC(=N)N)NC(=O)[C@@H](Cc2ccc(F)cc2)NC(=O)[C@@H]2CCCN2C(=O)[C@@H](C)NC1=O) [Compound 14: Ac-Arg-cyclo[Cys-D-Ala-Pro-D-Phe(p-F)-Arg-Trp-Cys]-NH2]"
  cAMP Assay (EC-50): "24 nM"
- binder: "Ac-RC[dA]W[dF]RWC-NH2 (disulfide 2-8; SMILES CC(=O)N[C@@H](CCCNC(=N)N)C(=O)N[C@H]1CSSC[C@@H](C(N)=O)NC(=O)[C@H](Cc2c[nH]c3ccccc23)NC(=O)[C@H](CCCNC(=N)N)NC(=O)[C@@H](Cc2ccccc2)NC(=O)[C@H](Cc2c[nH]c3ccccc23)NC(=O)[C@@H](C)NC1=O) [Compound 7: Ac-Arg-cyclo[Cys-D-Ala-Trp-D-Phe-Arg-Trp-Cys]-NH2]"
  cAMP Assay (EC-50): "34 nM"
- binder: "Ac-R[hCys]A[dF]RWC-NH2 (disulfide 2-7; SMILES CC(=O)N[C@@H](CCCNC(=N)N)C(=O)N[C@H]1CCSSC[C@@H](C(N)=O)NC(=O)[C@H](Cc2c[nH]c3ccccc23)NC(=O)[C@H](CCCNC(=N)N)NC(=O)[C@@H](Cc2ccccc2)NC(=O)[C@H](C)NC1=O) [Compound 15: Ac-Arg-cyclo[hCys-Ala-D-Phe-Arg-Trp-Cys]-NH2]"
  cAMP Assay (EC-50): "0.26 nM"

# ---- query binder ----
cAMP Assay (EC-50) lookup needed for Ac-ECAH[dF]RWC-NH2 (disulfide 2-8; SMILES CC(=O)N[C@@H](CCC(=O)O)C(=O)N[C@H]1CSSC[C@@H](C(N)=O)NC(=O)[C@H](Cc2c[nH]c3ccccc23)NC(=O)[C@H](CCCNC(=N)N)NC(=O)[C@@H](Cc2ccccc2)NC(=O)[C@H](Cc2c[nH]cn2)NC(=O)[C@H](C)NC1=O) [Compound 22: Ac-Glu-cyclo[Cys-Ala-His-D-Phe-Arg-Trp-Cys]-NH2] , thanks.
< 0.5 nM
